System: LXRa homodimer (NR concentration 270 nM)
Experiment: PBM binding z-score (relative to random genomic background probes); higher = stronger binding; sequences stand for … in GC…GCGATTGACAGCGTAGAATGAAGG
Classify by measured PBM binding z-score: y if it is equal to or exceeds -0.01, n if it is smaller.

Use these answered entries as a reference point.
>>> print(df.to_string())
                             residues                                       tgt  category
0  CAAACTAGGTCTAGGTCAAAGTCGGTTTGTGCCA  LXRa homodimer (NR concentration 270 nM)         y
1  GCTCGGAGGACAAAGTCAGAGCTTTGTCCGTAGA  LXRa homodimer (NR concentration 270 nM)         n
2  TAGCCTAGGTCATCCGGGCCAGTATAGTGTCGGC  LXRa homodimer (NR concentration 270 nM)         y

Has CCTGCTAGGTCAATGTTCAGCTAAAGCAGCTCGC a recorded PBM binding z-score greater than or equal to -0.01?
n

Has ACTAGCAGGCCAAGTTTGGGTCACTTAAACAAAG a recorded PBM binding z-score greater than or equal to -0.01?
n

Has CCTAGTTGGTCAAGAGGTCACACACCGGATATGA a recorded PBM binding z-score greater than or equal to -0.01?
y

---

Test system: LXRa:RXRa (NR concentration 270 nM, RXRa partner concentration 90 nM)
Experiment: PBM binding z-score (relative to random genomic background probes); higher = stronger binding; sequences stand for … in GC…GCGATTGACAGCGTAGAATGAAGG
Value kind: PBM binding z-score
Field format: numeric only.

Example cases with answers are listed next.
                             residues           value_kind  numeric_result
0  TCAAATAGGTAAATGCTAGGTGAAAGTCCGATCT  PBM binding z-score           0.737
1  CCTAGCAGGCCAATTTGGGTCACTCAAGGCTTGA  PBM binding z-score             1.3

Please list PBM binding z-score recorded for the sequence AGTCAAAGTTCACTAGGGAACGTAAGATTCAGCT
5.47

---

Tested on: THRa homodimer (NR concentration 90 nM)
Experiment: PBM binding z-score (relative to random genomic background probes); higher = stronger binding; sequences stand for … in GC…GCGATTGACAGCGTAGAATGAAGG
Recorded PBM binding z-score by entry
Field format: numeric only.

Example cases with answers are listed next.
In [3]: df
Out[3]:
                             residues           value_kind  numeric_result
0  CCTACTGGGCCAAAAAGGTCATTGAGGCCGATAA  PBM binding z-score           0.793
1  GCTAGTTGGTCAGTAAAAGGTCACATACCGGTCG  PBM binding z-score            1.86
2  ACAGACAGGTGATCAAGGTAACTCAGGCTATCAT  PBM binding z-score           0.997
3  TCTCGGAGGACACGAAAGGTCAGAGATCGACATC  PBM binding z-score            1.53

# evaluate next
Please list PBM binding z-score recorded for the sequence ATCGAAAGGTAGTGAGGTGAGTATACAGAAAGGC
0.917
